- run_description: Plasma pharmacokinetics of phenolic metabolites after intake of the GCPE nutraceutical (LC-MS-QToF)
- particulars: week 8, first peak where biphasic
# Tmax (h) or Range listing for each entry below

compound	unit_descriptor	Tmax (h) or Range
COc1cc(/C=C/C(=O)O[C@@H]2C[C@@](O)(C(=O)O)C[C@@H](O)[C@@H]2O)ccc1O	h	0.9
COc1cc(CCC(=O)O)ccc1O[C@@H]1O[C@H](C(=O)O)[C@@H](O)[C@H](O)[C@H]1O [DHFA-4′-glucuronide]	h	8.7
O=C(O)CNC(=O)c1cccc(O)c1 [3′-Hydroxyhippuric acid]	h	9.2
COc1cc(CCC(=O)O)ccc1OS(=O)(=O)O [DHFA-4′-sulfate]	h	8.4
